assayed-target: EGFR (L858R, T790M) (Homo sapiens, UniProt P00533, L858R/T790M)
Construct: purchased Reaction Biology
Sequence (P00533 25-1210 T790M/L858R): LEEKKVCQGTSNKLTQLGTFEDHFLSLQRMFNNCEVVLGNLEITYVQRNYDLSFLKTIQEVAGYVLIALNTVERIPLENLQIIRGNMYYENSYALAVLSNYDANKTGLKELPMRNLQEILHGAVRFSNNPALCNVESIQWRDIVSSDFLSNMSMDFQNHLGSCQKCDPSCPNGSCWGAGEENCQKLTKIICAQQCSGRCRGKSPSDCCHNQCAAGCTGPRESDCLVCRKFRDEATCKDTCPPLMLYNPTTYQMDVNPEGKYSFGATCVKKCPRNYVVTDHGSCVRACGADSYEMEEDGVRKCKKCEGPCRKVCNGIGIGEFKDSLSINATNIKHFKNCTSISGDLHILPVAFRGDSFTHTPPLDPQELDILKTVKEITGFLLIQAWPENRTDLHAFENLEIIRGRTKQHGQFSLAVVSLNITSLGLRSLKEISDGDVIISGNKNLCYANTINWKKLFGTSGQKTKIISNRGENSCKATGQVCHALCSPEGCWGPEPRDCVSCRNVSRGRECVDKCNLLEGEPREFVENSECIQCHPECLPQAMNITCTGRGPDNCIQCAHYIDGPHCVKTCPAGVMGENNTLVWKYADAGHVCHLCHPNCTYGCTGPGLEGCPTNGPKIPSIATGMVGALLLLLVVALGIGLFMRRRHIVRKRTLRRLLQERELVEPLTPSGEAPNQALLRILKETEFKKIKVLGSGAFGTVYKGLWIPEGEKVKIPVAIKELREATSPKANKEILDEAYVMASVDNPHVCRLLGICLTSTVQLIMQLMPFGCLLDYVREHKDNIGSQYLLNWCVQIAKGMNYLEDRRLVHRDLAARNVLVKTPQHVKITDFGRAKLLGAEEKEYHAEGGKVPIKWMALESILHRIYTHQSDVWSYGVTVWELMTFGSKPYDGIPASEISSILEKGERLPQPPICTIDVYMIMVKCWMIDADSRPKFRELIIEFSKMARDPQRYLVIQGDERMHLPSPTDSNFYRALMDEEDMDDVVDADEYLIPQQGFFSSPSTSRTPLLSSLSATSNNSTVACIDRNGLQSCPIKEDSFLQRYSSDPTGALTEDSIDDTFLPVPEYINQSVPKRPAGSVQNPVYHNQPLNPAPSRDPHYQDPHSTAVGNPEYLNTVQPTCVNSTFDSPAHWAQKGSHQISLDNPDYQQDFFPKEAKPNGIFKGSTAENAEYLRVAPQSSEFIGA
assay-notes: Kinase HotSpot profiling (Reaction Biology), 33P-ATP filter-binding
Assay type: biochemical
recorded-conditions: mutant EGFR L858R
measured-endpoint: IC50 (µM)
Please give a number only; it is taken to be in µM.

Please give the documented IC50 of COc1cc2ncnc(Nc3ccc(F)c(Cl)c3F)c2cc1OCCCN1CCC(OC(F)F)CC1 4.01

Kindly indicate its recorded IC50. Item: COc1cc2ncnc(Nc3ccc(F)c(Cl)c3F)c2cc1OC(=O)N1CC[C@@H](COC(F)F)C1 6.82
